Entry source: patent US8506945B2

# tested-system: Elastase
# condition-description: Elastase (1.2 μg/ml), 20° C., 0.2M TRIS buffer
quantity-name: pIC50
Keep in mind that pIC50 stands for -log10 of concentration in molar terms.

Input: # query: pIC50 of entry NCCc1ccc(S(=O)(=O)F)cc1 [AEBSF, 4-(2-aminoethyl)benzenesulphonylfluoride]
Output: 3.51

---

quantity-name: IC50 (µM)
The answer is to be given in µM; state only the numeric part.

Input: Quick check: IC50 on Thrombin (Homo sapiens, UniProt P00734), item NCCc1ccc(S(=O)(=O)F)cc1 [AEBSF, 4-(2-aminoethyl)benzenesulphonylfluoride] ?
Output: 712
